# EC50 (nM) HT29 values compiled below
# Target: Carboanhydrase IX (Homo sapiens, UniProt Q16790 38-459)
# Run description: cell-based or functional assay
Kindly answer with a numeric value in nM, unit omitted.

# count of solved cases: 2
{"Binder": "Example 281 (antibody, human IgG1, kappa, V domains shown, linker-toxophore on cysteine S) VH: QVELVESGGGLVQPGGSLRLSCAASGFTFSSYGMSWVRQAPGKGLEWVSGISSLGSTTYYADSVKGRFTISRDNSKNTLYLQMNSLRAEDTAVYYCARTGSPGTFMHGDHWGQGTLVTVSS VL: DIQMTQSPSSLSASVGDRVTITCRASQDINNYLSWYQQKPGKAPKLLIYGASNLQSGVPSRFSGSGSGTDFTLTISSLQPEDFAVYYCQQYYGRPTTFGQGTKVEIKR", "Recorded measurement": 1.7}
{"Binder": "Example 303 (antibody, human IgG1, kappa, V domains shown, linker-toxophore on lysine NH) VH: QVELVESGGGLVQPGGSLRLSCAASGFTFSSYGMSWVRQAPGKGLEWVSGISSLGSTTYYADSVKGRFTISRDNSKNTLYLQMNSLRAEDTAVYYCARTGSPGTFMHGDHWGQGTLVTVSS VL: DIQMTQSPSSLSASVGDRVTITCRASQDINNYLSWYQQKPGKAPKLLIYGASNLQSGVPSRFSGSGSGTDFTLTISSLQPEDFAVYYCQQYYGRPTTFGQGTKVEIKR", "Recorded measurement": 2.2}

Now let's try a different one.
# input Value lookup for EC50 (nM) HT29; key = Example 305 (antibody, human IgG1, kappa, V domains shown, linker-toxophore on cysteine S) VH: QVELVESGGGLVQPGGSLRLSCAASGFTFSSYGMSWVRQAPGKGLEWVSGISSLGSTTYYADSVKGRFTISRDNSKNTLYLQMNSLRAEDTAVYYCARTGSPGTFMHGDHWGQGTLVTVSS VL: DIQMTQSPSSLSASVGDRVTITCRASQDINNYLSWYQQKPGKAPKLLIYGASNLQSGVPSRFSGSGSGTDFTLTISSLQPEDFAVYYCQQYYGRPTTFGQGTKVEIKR
# output 0.9
